biological target: 5-HT1A (Homo sapiens, UniProt P08908); construct: host or cells: CHO cells; assay: FLIPR Ca2+ flux agonist assay at 5-HT1A; type: cell-based; settings: Ca2+ flux, CHO cells; ND = not determined due to lack of measurable agonism; read-out: 5-HT1A EC50
Sequence (P08908 whole entry, species assumed): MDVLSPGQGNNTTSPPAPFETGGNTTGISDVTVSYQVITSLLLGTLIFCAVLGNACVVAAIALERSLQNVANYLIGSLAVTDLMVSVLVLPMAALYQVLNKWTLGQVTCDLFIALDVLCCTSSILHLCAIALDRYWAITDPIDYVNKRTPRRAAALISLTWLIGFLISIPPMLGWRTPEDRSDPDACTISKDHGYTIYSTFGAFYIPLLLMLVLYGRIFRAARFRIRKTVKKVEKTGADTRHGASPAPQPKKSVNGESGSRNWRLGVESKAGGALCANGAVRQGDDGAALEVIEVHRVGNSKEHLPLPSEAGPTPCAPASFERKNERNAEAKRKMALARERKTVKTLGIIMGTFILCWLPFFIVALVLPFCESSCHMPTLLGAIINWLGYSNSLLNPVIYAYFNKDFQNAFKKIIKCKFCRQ
pEC50: −log10 of the molar value.
measurement kind: pEC50

# compound, test target, measurement kind, measured result
rows = [
    ("CCCN(CC)CCc1c[nH]c2ccccc12 [EPT, N-ethyl-N-propyltryptamine, reference compound]", "5-HT1A (Homo sapiens, UniProt P08908)", "pEC50", 4.05),
]

* * *

test system: monoamine oxidase A and B (MAO-A and MAO-B); assay: Stability in the presence of monoamine oxidases (human liver mitochondria preparation); parameters: dose or concentration left out as unconfirmed; conditions: human, human liver mitochondria, pH 7.4
measurement kind: log10 half-life (log10 of the value in min)

# smiles representation, measured result
measured = [
    ("CNCCc1c[nH]c2cc(C)cc(O)c12", 1.25),
    ("NCCc1c[nH]c2ccc(F)c(O)c12", 0.81),
    ("CCCNCCc1c[nH]c2ccc(F)c(O)c12", 0.93),
    ("Oc1c(F)ccc2[nH]cc(CCNC3CC3)c12", 1.56),
    ("CCNCCc1c[nH]c2ccc(F)c(O)c12", 1.75),
    ("CCNCCc1c[nH]c2ccc(C)c(O)c12", 1.95),
    ("CNCCc1c[nH]c2ccc(F)c(O)c12", 0.80),
]
